biological target: human PAD4 (Homo sapiens); construct: human PAD4 (NM_012387), A2-P663, was PCR amplified; His-SUMO (N, cleaved yes); experiment: In vitro PAD4 BAEE biochemical assay; settings: BAEE substrate 3 mM, 5 nM PAD4, 2 mM calcium chloride; geometric mean of multiple experiments
Sequence (Q9UM07 2-663): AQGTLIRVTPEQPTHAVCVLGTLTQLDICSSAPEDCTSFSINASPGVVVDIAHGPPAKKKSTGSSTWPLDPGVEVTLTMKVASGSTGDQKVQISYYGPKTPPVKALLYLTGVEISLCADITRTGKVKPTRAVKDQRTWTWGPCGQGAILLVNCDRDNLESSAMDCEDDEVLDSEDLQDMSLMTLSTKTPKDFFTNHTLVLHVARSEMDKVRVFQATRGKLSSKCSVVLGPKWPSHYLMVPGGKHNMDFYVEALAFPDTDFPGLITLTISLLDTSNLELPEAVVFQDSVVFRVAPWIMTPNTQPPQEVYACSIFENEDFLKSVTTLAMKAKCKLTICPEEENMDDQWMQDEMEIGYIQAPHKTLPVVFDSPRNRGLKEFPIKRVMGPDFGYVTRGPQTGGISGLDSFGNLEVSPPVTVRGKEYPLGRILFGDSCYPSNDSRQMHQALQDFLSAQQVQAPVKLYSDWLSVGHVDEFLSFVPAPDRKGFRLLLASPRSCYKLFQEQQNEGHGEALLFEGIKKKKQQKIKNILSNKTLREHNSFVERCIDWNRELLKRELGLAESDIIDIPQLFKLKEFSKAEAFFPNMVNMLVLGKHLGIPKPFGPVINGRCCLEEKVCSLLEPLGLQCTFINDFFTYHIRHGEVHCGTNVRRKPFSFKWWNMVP
READOUT LABEL: IC50 (nM)
Answers are plain numbers, in nM.

Solved entries:
COc1cc(C(=O)N2[C@H]3CC[C@@H]2[C@H](N)C3)cc2nc(-c3cc4ccc5cc4n3CCCCCOC(C)(C)C(=O)N[C@@H]5C)n(C)c12 [Example 222]
64
COc1cc(C(=O)N2C[C@H](N)[C@@H]3CC[C@H]2C3)cc2nc(-c3cc4ccc5c(F)c4n3CC(F)(F)CCC[C@@H]3C[C@H]3C(=O)N[C@@H]5C)n(C)c12 [Example 437]
30
COc1cc(C(=O)N2CCC[C@@H](N)C2)cc2nc(-c3cc4ccc5nc4n3C[C@H]3C[C@@H]3CCCCC(=O)N[C@@H]5C)n(C)c12 [Example 163]
51
C[C@H]1NC(=O)c2ccc(C(F)F)nc2CCCCCn2c(-c3nc4cc(C(=O)N5C[C@H](N)[C@@H]6CC[C@H]5C6)cc(F)c4n3C3CC3)cc3ccc1nc32 [Example 843]
18

Please look at the following molecule next.
Lab note: molecule COc1cc(C(=O)N2CCC[C@@H](N)C2)cc2nc(-c3cc4ccc5nc4n3C[C@H]3C[C@H]3COC[C@H](C)C(=O)N[C@@H]5C)n(C)c12 (single isomer, unassigned) [Example 313] tested on human PAD4 (Homo sapiens); recorded IC50 was 85

---

target: human PAD4 (Homo sapiens); construct: human PAD4 (NM_012387), A2-P663, was PCR amplified; His-SUMO (N, cleaved yes); test: In vitro PAD4 BAEE biochemical assay; conditions: BAEE substrate 3 mM, 5 nM PAD4, 2 mM calcium chloride; geometric mean of multiple experiments
Field: pIC50. Provide a value for each of the compounds that follow.
Numbers only, as −log10 of the molar value.

These recorded examples may help you get a feel for the data.
COc1cc(C(=O)N2[C@H]3CC[C@@H]2[C@H](N)C3)cc2nc(-c3cc4ccc5nc4n3CCCCCCCC(=O)N3CCC[C@H]53)n(C)c12 [Example 125]
7.68
COc1cc(C(=O)N2C[C@H]3CCCN[C@H]3C2)cc2nc(-c3cc4ccc5nc4n3CCCCCCC(C)(C)C(=O)N[C@@H]5C)n(C)c12 [Example 80]
6.59
C[C@H]1NC(=O)[C@@H]2C[C@@H]2C/C=C\CCn2c(-c3nc4cc(C(=O)N[C@H]5CNCC[C@@H]5F)c(F)cc4n3C3CC3)cc3ccc1nc32 [Example 519]
7.36
COc1cc(C(=O)N2C[C@H](N)[C@@H]3CC[C@H]2C3)cc2nc(-c3cc4ccc5nc4n3CCCCCC[C@](F)(c3ccccn3)C(=O)N[C@@H]5C)n(C)c12 [Example 883]
7.74

Give measured pIC50 for every item shown.
1. CO[C@@H]1CCN(C(=O)c2cc(F)c3c(c2)nc(-c2cc4ccc5nc4n2CCCCCc2ccnc(C)c2C(=O)N[C@@H]5C)n3C2CC2)C[C@@H]1N [Example 698]
2. C[C@H]1NC(=O)[C@@H]2C[C@H]2CCCC(F)(F)Cn2c(-c3nc4cc(C(=O)N5C[C@H](N)[C@@H]6CC[C@H]5C6)cc(F)c4n3[C@@H]3C[C@H]3F)cc3ccc1nc32 [Example 477]
3. COc1cc(C(=O)N2CC[C@@H](C)[C@@H](N)[C@@H]2C)cc2nc(-c3cc4ccc5nc4n3CC(F)(F)CCC[C@@H]3C[C@H]3C(=O)N[C@@H]5C)n(C)c12 [Example 676]
4. COc1cc(C(=O)N2C[C@H](N)C[C@H](O)[C@@H]2C)cc2nc(-c3cc4ccc5nc4n3CCCCCCC(C)(C)C(=O)N[C@@H]5C)n(C)c12 [Example 786]
5. C[C@H]1NC(=O)c2ccccc2CC[C@@H]2C[C@H]2Cn2c(-c3nc4cc(C(=O)N[C@H]5CNCC[C@@H]5F)c(F)cc4n3C3CC3)cc3ccc1nc32 [Example 348]
6. C[C@H]1NC(=O)c2ccc(Cl)nc2CCCC(F)(F)Cn2c(-c3nc4cc(C(=O)N5C[C@H](N)[C@@H]6CC[C@H]5C6)cc(F)c4n3C3CC3)cc3ccc1nc32 [Example 814]
7. COc1cc(C(=O)N2CCC[C@@H](N)C2)cc2nc(-c3cc4ccc5nc4n3CCCCCCCCCC(=O)N[C@@H]5C)c(C)n12 [Example 284]

-- reply
[7.17, 7.46, 7.08, 6.63, 7.18, 7.42, 7.28]
